- target-desc: HDAC7 (Homo sapiens, UniProt Q8WUI4)
- Sequence (Q8WUI4 whole entry): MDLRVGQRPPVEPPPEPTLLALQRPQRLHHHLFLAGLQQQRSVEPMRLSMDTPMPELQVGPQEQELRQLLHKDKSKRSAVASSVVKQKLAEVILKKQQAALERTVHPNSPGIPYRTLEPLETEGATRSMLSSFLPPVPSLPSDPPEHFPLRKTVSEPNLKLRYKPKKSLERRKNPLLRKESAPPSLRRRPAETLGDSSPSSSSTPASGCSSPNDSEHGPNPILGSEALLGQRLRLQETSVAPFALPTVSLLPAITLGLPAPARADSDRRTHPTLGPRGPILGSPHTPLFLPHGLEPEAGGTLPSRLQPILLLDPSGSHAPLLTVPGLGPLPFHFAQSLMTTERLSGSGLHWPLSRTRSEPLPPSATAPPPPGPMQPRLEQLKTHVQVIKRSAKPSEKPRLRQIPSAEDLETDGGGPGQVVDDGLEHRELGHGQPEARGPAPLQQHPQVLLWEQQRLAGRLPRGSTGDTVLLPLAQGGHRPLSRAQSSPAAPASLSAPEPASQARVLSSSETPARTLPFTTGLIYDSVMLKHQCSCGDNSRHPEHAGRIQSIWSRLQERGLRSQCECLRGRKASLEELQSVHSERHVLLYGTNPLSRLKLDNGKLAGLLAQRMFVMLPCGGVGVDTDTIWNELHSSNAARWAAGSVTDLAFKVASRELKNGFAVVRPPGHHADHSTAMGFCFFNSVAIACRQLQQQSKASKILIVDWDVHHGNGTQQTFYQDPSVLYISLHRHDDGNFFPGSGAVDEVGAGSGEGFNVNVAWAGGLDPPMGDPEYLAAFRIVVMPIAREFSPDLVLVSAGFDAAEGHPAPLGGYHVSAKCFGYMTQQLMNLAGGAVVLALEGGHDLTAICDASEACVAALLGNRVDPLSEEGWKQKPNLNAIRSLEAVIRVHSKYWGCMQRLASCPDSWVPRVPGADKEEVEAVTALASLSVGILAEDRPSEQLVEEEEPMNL
- method: HDAC biochemical activity measurement (fluorescent substrate deacetylation);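 also: fluorogenic deacetylation assay using acetyl-lysine substrate at 20 µM, enzyme and compound incubated 30 min at 37 °C, then developer added, fluorescence read at 360/460 nm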
- measurement-conditions: HDAC7; 37° C. 30 minutes
readout: IC50 HDAC7

Worked set:
molecule: C/C=C1\NC(=O)c2nc(ccc2F)CNC(=O)C[C@@H](/C=C/CCSC(C)=O)OC(=O)[C@H](C(C)C)NC1=O [Example 48]
target-desc: HDAC7 (Homo sapiens, UniProt Q8WUI4)
IC50 HDAC7: no activity
--
molecule: C/C=C1\NC(=O)c2cc(F)cc(n2)CNC(=O)C[C@@H](/C=C/CCS)OC(=O)[C@H](C(C)C)NC1=O [Compound 107]
target-desc: HDAC7 (Homo sapiens, UniProt Q8WUI4)
IC50 HDAC7: no activity
--
molecule: C/C=C1\NC(=O)c2nc(ccc2SC)CNC(=O)C[C@@H](/C=C/CCSC(C)=O)OC(=O)[C@H](CCCCNC(=O)OCC2c3ccccc3-c3ccccc32)NC1=O [Compound 195]
target-desc: HDAC7 (Homo sapiens, UniProt Q8WUI4)
IC50 HDAC7: no activity
--
molecule: CSc1cc2nc(c1)C(=O)NC(=C(C)C)C(=O)N[C@@H](C(C)C)C(=O)O[C@H](/C=C/CCSC(C)=O)CC(=O)NC2 [Compound 208]
target-desc: HDAC7 (Homo sapiens, UniProt Q8WUI4)
IC50 HDAC7: no activity
--
molecule: C/C=C1\NC(=O)c2ccc(F)c(n2)CNC(=O)C[C@@H](/C=C/CCSC(C)=O)OC(=O)[C@H](CCCCNC(=O)OCC2c3ccccc3-c3ccccc32)NC1=O [Example 77]
target-desc: HDAC7 (Homo sapiens, UniProt Q8WUI4)
IC50 HDAC7: no activity
--
molecule: C/C=C1\NC(=O)c2ccc(SC)c(n2)CNC(=O)C[C@@H](/C=C/CCSC(=O)CCCCCCC)OC(=O)[C@H](C(C)C)NC1=O [Compound 149]
target-desc: HDAC7 (Homo sapiens, UniProt Q8WUI4)
IC50 HDAC7: no activity

[Q] Fill in: IC50 HDAC7 of C/C=C1\NC(=O)c2nc(ccc2F)CNC(=O)C[C@@H](/C=C/CCSC(=O)CCCCCC)OC(=O)[C@H](C(C)C)NC1=O [Compound 33] is ___
[A] no activity

[Q] Looking for the measured IC50 HDAC7 of C/C=C1\NC(=O)c2ccc(SC)c(n2)CNC(=O)C[C@@H](/C=C/CCSC(C)=O)OC(=O)[C@H](CCCCN)NC1=O [Compound 194] , can you help?
[A] no activity

[Q] Suppose we examine the molecule C/C=C1\NC(=O)c2ccc(SC)c(n2)CNC(=O)C[C@@H](/C=C/CCSC(=O)CC)OC(=O)[C@H](C(C)C)NC1=O [Compound 164] ; what IC50 HDAC7 value has been reported?
[A] no activity

[Q] Data request, read-out IC50 HDAC7, for C/C=C1\NC(=O)c2nc(ccc2F)CNC(=O)C[C@@H](/C=C/CCS)OC(=O)[C@H](CCCCN)NC1=O [Compound 116]
[A] no activity

[Q] GET /values?readout=IC50 HDAC7&item= C/C=C1\NC(=O)c2cccc(n2)CNC(=O)C[C@@H](/C=C/CCS)OC(=O)[C@H](CC)NC1=O [Example 28]
[A] no activity

Data credit: patent US10065990B2
